molecular target: Lipoxygenase; experiment: Enzyme assay, inhibition of lipoxygenase (method based on Borgeat et al); assay type: biochemical
// classify: if (IC50 < 2 µM) Y else N

>  <Compound>
O=CN(Cc1ccc(F)cc1)C1=NN(c2ccc(Br)c(C(F)(F)F)c2)CC1 [Example 18B]

>  <Group>
N

$$$$
>  <Compound>
O=CN(CC=Cc1ccccc1)C1=NN(c2cccc(C(F)(F)F)c2)CC1

>  <Group>
Y

$$$$
>  <Compound>
CCC(=O)N(C)C1=NN(c2cccc(C(F)(F)F)c2)CC1

>  <Group>
Y

$$$$
>  <Compound>
O=CN(CC=CCCl)C1=NN(c2cccc(C(F)(F)F)c2)CC1

>  <Group>
N

$$$$
>  <Compound>
CC(=O)N(C)C1=NN(c2cccc(C(F)(F)F)c2)CC1 [29&30B]

>  <Group>
Y

$$$$
>  <Compound>
CC(=O)N(C)C1=NN(c2ccc(Br)c(C(F)(F)F)c2)CC1

>  <Group>
Y

$$$$
>  <Compound>
CCCN(C=O)C1=NN(c2cccc(C(F)(F)F)c2)CC1

>  <Group>
Y

$$$$
>  <Compound>
C#CCN(C=O)C1=NN(c2cccc(C(F)(F)F)c2)CC1

>  <Group>
Y

$$$$

----------
target: Cyclooxygenase; assay: Enzyme assay, inhibition of cyclooxygenase (method based on Borgeat et al); type: biochemical
// classify: if (IC50 < 2 µM) TRUE else FALSE

>  <Compound>
O=CN(CC=CCCl)C1=NN(c2cccc(C(F)(F)F)c2)CC1

>  <Target Or System>
Cyclooxygenase

>  <Group>
FALSE

$$$$
>  <Compound>
CC(=O)N(C)C1=NN(c2cccc(C(F)(F)F)c2)CC1 [29&30B]

>  <Target Or System>
Cyclooxygenase

>  <Group>
TRUE

$$$$
>  <Compound>
CC(=O)N(C)C1=NN(c2ccc(Br)c(C(F)(F)F)c2)CC1

>  <Target Or System>
Cyclooxygenase

>  <Group>
TRUE

$$$$
>  <Compound>
C#CCN(C=O)C1=NN(c2cccc(C(F)(F)F)c2)CC1

>  <Target Or System>
Cyclooxygenase

>  <Group>
FALSE

$$$$
>  <Compound>
CCC(=O)N(C)C1=NN(c2cccc(C(F)(F)F)c2)CC1

>  <Target Or System>
Cyclooxygenase

>  <Group>
FALSE

$$$$
>  <Compound>
O=CN(CC1CC1)C1=NN(c2cccc(C(F)(F)F)c2)CC1

>  <Target Or System>
Cyclooxygenase

>  <Group>
FALSE

$$$$
>  <Compound>
C=CCN(C=O)C1=NN(c2cccc(C(F)(F)F)c2)CC1

>  <Target Or System>
Cyclooxygenase

>  <Group>
FALSE

$$$$
>  <Compound>
CCCN(C=O)C1=NN(c2cccc(C(F)(F)F)c2)CC1

>  <Target Or System>
Cyclooxygenase

>  <Group>
FALSE

$$$$

Data credit: patent EP0119450A1
